Tested on: COLO 205 colon
assay: NCI-60 one-dose screen, 48 h (100 = growth as untreated, 0 = no growth, -100 = all killed)
details: 10 µM unless noted
About 83,000 compounds went through this panel and 20% of them were active in at least one assay; those are over-represented in the sample as a whole.
quantity_measured: growth (%)
Your answer should be a plain number; it is taken to be in %.

- molecule: "Cc1cc(C)c(-c2cc(O)c(-c3c(C)cc(C)cc3C)cc2O)c(C)c1"
  display_unit: "%"
  numeric_readout: -12.8
- molecule: "O=C1NC(=O)C(Cc2ccc(OCc3ccc(-c4cc(F)c(F)c(F)c4)cc3)cc2)S1 (stereo not given)"
  display_unit: "%"
  numeric_readout: 97.6

Given the entry "Cn1cc(-c2nnc(-c3cn(C)c4ncc(Br)cc34)o2)c2ccccc21" , what growth was observed with COLO 205 colon?
76

Same question for "O=C(NCCCNC(=O)OCc1ccc2cccc(O)c2n1)OCc1ccc2cccc(O)c2n1" please.
29.6

Same question for "CCCc1cc2cc(-n3nc(C)c4c3CC(C)(C)CC4=O)cc(NC3CCSCC3)c2c(=O)[nH]1" please.
41.9

Same question for "CSc1nc2c(c(=O)n1C)C1(C(=O)N(Cc3ccccc3)c3ccccc31)c1c(nc(SC)n(C)c1=O)N2" please.
105

Same question for "Oc1ccc(N=Nc2nccs2)c(O)c1" please.
24.8
